Measured pEC50 of individual entries
Biological target: human FGFR2b (Homo sapiens, UniProt P21802)
Sequence (P21802 22-822 isoform P21802-3 limits assumed): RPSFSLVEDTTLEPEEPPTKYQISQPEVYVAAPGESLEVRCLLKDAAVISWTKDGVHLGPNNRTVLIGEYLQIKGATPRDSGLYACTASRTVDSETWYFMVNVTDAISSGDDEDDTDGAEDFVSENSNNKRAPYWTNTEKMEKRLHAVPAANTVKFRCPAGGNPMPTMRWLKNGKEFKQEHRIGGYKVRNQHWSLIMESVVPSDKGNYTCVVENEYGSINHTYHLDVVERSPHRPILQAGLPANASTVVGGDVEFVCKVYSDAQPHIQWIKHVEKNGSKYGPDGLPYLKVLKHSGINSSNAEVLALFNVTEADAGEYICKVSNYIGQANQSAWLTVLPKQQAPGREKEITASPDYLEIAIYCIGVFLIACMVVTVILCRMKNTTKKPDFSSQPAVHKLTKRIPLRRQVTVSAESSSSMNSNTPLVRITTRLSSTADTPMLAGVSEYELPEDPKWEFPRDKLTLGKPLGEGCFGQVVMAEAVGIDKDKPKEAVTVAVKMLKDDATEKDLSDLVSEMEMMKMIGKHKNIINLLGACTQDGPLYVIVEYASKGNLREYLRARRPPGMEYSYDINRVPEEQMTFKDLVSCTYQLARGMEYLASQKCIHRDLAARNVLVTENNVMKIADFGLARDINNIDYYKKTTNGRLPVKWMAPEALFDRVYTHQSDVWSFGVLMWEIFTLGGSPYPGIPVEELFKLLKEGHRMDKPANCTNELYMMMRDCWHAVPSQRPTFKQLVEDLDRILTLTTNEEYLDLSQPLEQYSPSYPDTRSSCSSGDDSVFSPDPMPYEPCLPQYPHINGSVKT
Experiment: ELISA binding to recombinant human FGFR2b (Example 11)
pEC50 here: minus log base 10 of the concentration, concentration in moles per litre.

Record excerpt, results attached:
{"molecule": "BGAh9179: humanized anti-FGFR2b IgG1 antibody from murine BGAm1371; VH SEQ ID NO: 21, VL SEQ ID NO: 22 (antibody, V domains shown, Synthetic: VH AA; Synthetic: VL AA) VH: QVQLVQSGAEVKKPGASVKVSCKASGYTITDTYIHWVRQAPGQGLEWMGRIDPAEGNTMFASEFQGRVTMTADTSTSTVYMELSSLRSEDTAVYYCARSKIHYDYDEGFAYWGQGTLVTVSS VL: DIVLTQSPDSLAVSLGERATINCRASESVDDYGYSFLHWYQQKPGQPPKLLIYRASNLESGVPDRFSGSGSGTDFTLTISSLQAEDVAVYYCQQSNQNPRTFGGGTKVEIK", "pEC50": 10.29}
{"molecule": "BGAm1823: parental murine anti-FGFR2b antibody; VH SEQ ID NO: 28, VL SEQ ID NO: 30 (antibody, V domains shown, Synthetic: VH AA; Synthetic: VL AA) VH: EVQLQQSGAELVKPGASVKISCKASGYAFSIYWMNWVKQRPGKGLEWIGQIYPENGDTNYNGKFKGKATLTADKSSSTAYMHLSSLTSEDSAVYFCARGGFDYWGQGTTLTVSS VL: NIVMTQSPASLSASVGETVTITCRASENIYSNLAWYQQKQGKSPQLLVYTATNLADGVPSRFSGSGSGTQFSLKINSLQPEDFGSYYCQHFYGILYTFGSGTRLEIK", "pEC50": 10.35}

The record that follows has no pEC50 shown yet.
Field pEC50 (entry BGAm1371: parental murine anti-FGFR2b antibody (parental mouse clone); VH SEQ ID NO: 32, VL SEQ ID NO: 34 (antibody, V domains shown, Synthetic: VH AA; Synthetic: VL AA) VH: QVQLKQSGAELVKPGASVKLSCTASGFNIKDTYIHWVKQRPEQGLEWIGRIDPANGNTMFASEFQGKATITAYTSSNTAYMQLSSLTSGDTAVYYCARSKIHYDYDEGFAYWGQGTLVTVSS VL: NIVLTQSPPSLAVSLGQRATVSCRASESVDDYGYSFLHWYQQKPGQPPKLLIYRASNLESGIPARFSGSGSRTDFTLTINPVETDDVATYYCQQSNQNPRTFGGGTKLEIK ) reads 10.51
